Reported IC50 by item:
# SYSTEM: Human immunodeficiency virus type 1 integrase (Human immunodeficiency virus 1, UniProt Q7ZJM1)
# Sequence (Q7ZJM1 whole entry): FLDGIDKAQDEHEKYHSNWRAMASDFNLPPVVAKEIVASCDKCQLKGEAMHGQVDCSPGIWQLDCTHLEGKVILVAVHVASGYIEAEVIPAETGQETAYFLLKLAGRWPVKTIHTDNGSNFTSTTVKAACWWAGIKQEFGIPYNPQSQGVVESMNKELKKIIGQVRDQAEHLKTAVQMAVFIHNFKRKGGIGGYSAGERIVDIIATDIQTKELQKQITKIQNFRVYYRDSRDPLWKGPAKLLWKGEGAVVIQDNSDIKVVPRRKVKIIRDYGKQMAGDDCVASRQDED
# ASSAY_NAME: Inhibitory concentration against 3'processing of HIV-1 Integrase
Dear colleague, please return just the value in µM, with no unit written.

- COc1cc(/C=C/S(=O)(=O)CS(=O)(=O)/C=C/c2cc(O)c(O)c(OC)c2)cc(O)c1O: 50

Now for a further compound.
Task: Please report the recorded IC50 for `COc1cc(/C=C/S(=O)(=O)CS(=O)(=O)/C=C/c2ccccc2)cc(O)c1O` .
Output: 80

* * *

# Test system: HeLa
# ASSAY_NAME: Cytotoxicity for HeLa H1-JC.37 cells using MTS assay
# Type: functional, cell-based
# ASSAY_SETUP: Homo sapiens
REPORTED_ENDPOINT: pIC50
Expect pIC50 as a plain number equal to -log10 of the molar concentration.

Guide cases for pIC50, answers given:
* O=S(=O)(/C=C/c1cc(O)c(O)c(O)c1)CS(=O)(=O)/C=C/c1cc(O)c(O)c(O)c1 | 3.77
* COc1cc(/C=C/S(=O)(=O)CS(=O)(=O)/C=C/c2cc(O)c(O)c(OC)c2)cc(O)c1O | 4.54
* COc1cc(/C=C/S(=O)(=O)CS(=O)(=O)/C=C/c2ccccc2)cc(O)c1O | 4.72

Now for a further compound.
Task: Find pIC50 (HeLa) for the entry `O=S(=O)(/C=C/c1ccc(O)c(O)c1)CS(=O)(=O)/C=C/c1ccc(O)c(O)c1`
Output: 3.73

* * *

# SYSTEM: Human immunodeficiency virus type 1 integrase (Human immunodeficiency virus 1, UniProt Q7ZJM1)
# ASSAY_NAME: Inhibitory concentration against integration of HIV-1 Integrase
Returns: string. Value is true (1) if measured IC50 is below 80 µM, and false (0) if it is greater than or equal to it.

Known results for compounds:
* O=S(=O)(/C=C/c1ccc(O)c(O)c1)CS(=O)(=O)/C=C/c1ccc(O)c(O)c1 | true (1)
* COc1cc(/C=C/S(=O)(=O)CS(=O)(=O)/C=C/c2cc(O)c(O)c(OC)c2)cc(O)c1O | true (1)

Task: Could you please tell me whether IC50 recorded for `O=S(=O)(/C=C/c1cc(O)c(O)c(O)c1)CS(=O)(=O)/C=C/c1cc(O)c(O)c(O)c1` is less than 80 µM?
Output: true (1)

Task: Could you please tell me whether IC50 recorded for `O=S(=O)(/C=C/c1ccc(OCc2ccccc2)c(OCc2ccccc2)c1)CS(=O)(=O)/C=C/c1ccc(OCc2ccccc2)c(OCc2ccccc2)c1` is less than 80 µM?
Output: false (0)

Task: Could you please tell me whether IC50 recorded for `COc1cc(/C=C/S(=O)(=O)CS(=O)(=O)/C=C/c2ccc(C(C)=O)c(OC)c2)ccc1C(C)=O` is less than 80 µM?
Output: false (0)

* * *

# SYSTEM: Human immunodeficiency virus type 1 integrase (Human immunodeficiency virus 1)
# ASSAY_NAME: Inhibitory concentration against 3'processing of HIV-1 Integrase
Reported pIC50 by item:
Expect pIC50 as a plain number equal to -log10 of the molar concentration.

Guide cases for pIC50, answers given:
• O=S(=O)(/C=C/c1cc(O)c(O)c(O)c1)CS(=O)(=O)/C=C/c1cc(O)c(O)c(O)c1 = 5.74
• O=S(=O)(/C=C/c1ccc(O)c(O)c1)CS(=O)(=O)/C=C/c1ccc(O)c(O)c1 = 5.40

Now for a further compound.
Task: Please report the recorded pIC50 for `O=S(=O)(/C=C/c1ccc(OCc2ccccc2)c(OCc2ccccc2)c1)CS(=O)(=O)/C=C/c1ccc(OCc2ccccc2)c(OCc2ccccc2)c1` .
Output: 3.15
